- PROTOCOL: solubility in water
- Format: physicochemical
- Source text: The compound of formula (XIII) was made and analyzed.
ASSAY READOUT: solubility
# number then unit; no other words

Q: Give reported solubility value for N[C@@H](COC(=O)CCC(=O)OCC(O)CO)C(=O)O (stereo partly shown) [formula (XIII)]
A: 1200 mg/mL
